- details: 298.15 K; 101 kPa; Liquid; Vibrating tube method
± gives the expanded uncertainty stated by the source.
Listed here: items and their measured mass density.

compound: CC(=O)[O-].C[NH+](C)C [trimethylammonium acetate]
mass density: 1053.85 ± 1 kg/m3
//
compound: C[NH+](C)C.O=P([O-])(O)O [trimethylammonium dihydrogen phosphate]
mass density: 1353.61 ± 1.1 kg/m3
//
compound: C[NH+](C)C.O=S(=O)([O-])O [trimethylammonium hydrogen sulfate]
mass density: 1467.58 ± 1.2 kg/m3
//
compound: C[S+](C)[O-] [dimethyl sulfoxide]
mass density: 1095.37 ± 1 kg/m3

###

Listed here: items and their measured viscosity.
- details: 298.15 K; 101 kPa; Liquid; Oscillating disk viscometry
Numbers after ± are expanded uncertainties.

compound: C[S+](C)[O-] [dimethyl sulfoxide]
viscosity: 1.99 ± 0.13 mPa·s
--
compound: CC(=O)[O-].C[NH+](C)C [trimethylammonium acetate]
viscosity: 2.76 ± 0.18 mPa·s
--
compound: C[NH+](C)C.O=P([O-])(O)O [trimethylammonium dihydrogen phosphate]
viscosity: 7.64 ± 0.52 mPa·s
--
compound: C[NH+](C)C.O=S(=O)([O-])O [trimethylammonium hydrogen sulfate]
viscosity: 5.1 ± 0.33 mPa·s
